target: H^+/K^+ ATPase (Oryctolagus cuniculus); construct: using an enzyme isolated from the rabbit or porcine (pig) fundus; from tissue; host or cells: rabbit gastric fundus; assay: H+K+-ATPase assay (p-NPP to p-NP), enzyme from rabbit fundus; assay type: biochemical; conditions: pH 6.0, 30 min pre-incubation at 37° C.
Reported pIC50 values are given for each entry in this list.
Interpret pIC50 as the negative base-10 log of the concentration measured in mol/L.

* COc1c(CSSCc2c(OC)c(=O)ccn2-c2nc3cc(OC(F)F)ccc3[nH]2)n(-c2nc3cc(OC(F)F)ccc3[nH]2)ccc1=O | 5.82
* COc1c(CSSCc2c(OC)c(=O)ccn2-c2nc3cc(C(F)(F)F)ccc3[nH]2)n(-c2nc3cc(C(F)(F)F)ccc3[nH]2)ccc1=O | 5.96
* Cc1cn(-c2nc3ncccc3[nH]2)c(CSSCc2c(C)c(=O)c(C)cn2-c2nc3ncccc3[nH]2)c(C)c1=O | 5.55
* COc1c(CSSCc2c(OC)c(=O)ccn2-c2nc3ccccc3[nH]2)n(-c2nc3ccccc3[nH]2)ccc1=O | 5.96
* O=c1ccn(-c2nc3ccccc3[nH]2)c(C[S+]([O-])[S+]([O-])Cc2cc(=O)ccn2-c2nc3ccccc3[nH]2)c1 (centres unmarked) | 6.00
* Cc1ccc2[nH]c(-n3cc(C)c(=O)c(C)c3CSSCc3c(C)c(=O)c(C)cn3-c3nc4cc(C)ccc4[nH]3)nc2c1 | 5.80
* COc1ccc2[nH]c(-n3ccc(=O)c(OC)c3CSSCc3c(OC)c(=O)ccn3-c3nc4cc(OC)ccc4[nH]3)nc2c1 | 5.92

Q: Missing value: pIC50, H^+/K^+ ATPase (Oryctolagus cuniculus), entry COc1ccc2[nH]c(-n3cc(C)c(=O)c(C)c3CSSCc3c(C)c(=O)c(C)cn3-c3nc4cc(OC)ccc4[nH]3)nc2c1 . Fill in?
A: 5.89

* * *

target: H^+/K^+ ATPase (Sus scrofa); construct: using an enzyme isolated from the rabbit or porcine (pig) fundus; from tissue; host or cells: porcine (pig) gastric fundus; assay: H+K+-ATPase assay (p-NPP to p-NP), enzyme from porcine (pig) fundus; type: biochemical; settings: enzyme from porcine fundus, pH 6.0, 30 min pre-incubation at 37° C.
Sequence (P19156 2-1034 limits assumed): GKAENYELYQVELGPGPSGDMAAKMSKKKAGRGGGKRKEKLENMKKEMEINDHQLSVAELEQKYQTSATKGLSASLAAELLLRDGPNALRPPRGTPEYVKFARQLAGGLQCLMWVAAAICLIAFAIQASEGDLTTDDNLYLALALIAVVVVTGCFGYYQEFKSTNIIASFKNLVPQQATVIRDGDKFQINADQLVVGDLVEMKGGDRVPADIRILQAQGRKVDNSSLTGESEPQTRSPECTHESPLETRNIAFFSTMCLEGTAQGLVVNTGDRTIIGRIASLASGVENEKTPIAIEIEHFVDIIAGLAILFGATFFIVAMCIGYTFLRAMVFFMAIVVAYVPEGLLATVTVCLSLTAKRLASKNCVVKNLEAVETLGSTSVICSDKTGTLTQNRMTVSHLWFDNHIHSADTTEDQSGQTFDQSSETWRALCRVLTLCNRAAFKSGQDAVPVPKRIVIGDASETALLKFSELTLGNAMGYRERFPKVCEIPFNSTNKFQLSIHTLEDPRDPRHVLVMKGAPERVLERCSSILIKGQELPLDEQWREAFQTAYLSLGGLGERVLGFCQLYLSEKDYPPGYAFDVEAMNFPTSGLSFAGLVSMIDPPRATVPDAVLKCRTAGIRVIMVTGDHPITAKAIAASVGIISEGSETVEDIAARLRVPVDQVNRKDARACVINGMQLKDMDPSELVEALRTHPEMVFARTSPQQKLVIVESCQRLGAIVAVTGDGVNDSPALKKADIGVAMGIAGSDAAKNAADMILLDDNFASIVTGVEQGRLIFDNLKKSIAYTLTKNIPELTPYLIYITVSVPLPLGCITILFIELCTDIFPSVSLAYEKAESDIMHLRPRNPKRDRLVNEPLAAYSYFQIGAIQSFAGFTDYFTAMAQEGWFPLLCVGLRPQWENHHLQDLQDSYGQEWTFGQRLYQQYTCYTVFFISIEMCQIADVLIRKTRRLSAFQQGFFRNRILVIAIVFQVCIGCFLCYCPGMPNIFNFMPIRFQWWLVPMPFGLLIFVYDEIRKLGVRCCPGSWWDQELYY
Sequence (P18434 whole entry partner): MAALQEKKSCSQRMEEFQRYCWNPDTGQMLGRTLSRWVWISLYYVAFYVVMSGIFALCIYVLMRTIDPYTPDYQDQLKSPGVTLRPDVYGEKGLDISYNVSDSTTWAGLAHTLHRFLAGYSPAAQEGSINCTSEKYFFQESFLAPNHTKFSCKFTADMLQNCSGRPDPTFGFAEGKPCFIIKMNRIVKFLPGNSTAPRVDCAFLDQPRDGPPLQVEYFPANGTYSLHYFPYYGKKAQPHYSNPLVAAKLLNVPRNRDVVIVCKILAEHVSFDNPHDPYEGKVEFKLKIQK
Metric Name: IC50 (µM)
Express your answer in µM, writing the number without its unit.

Q: Request the reported IC50 associated with COc1c(CSSCc2c(OC)c(=O)ccn2-c2nc3cc(OC(F)F)ccc3[nH]2)n(-c2nc3cc(OC(F)F)ccc3[nH]2)ccc1=O
A: 3.3

Q: Another: O=c1ccn(-c2nc3ccccc3[nH]2)c(C[S+]([O-])[S+]([O-])Cc2cc(=O)ccn2-c2nc3ccccc3[nH]2)c1 (stereo not drawn)
A: 1.8

* * *

target: H^+/K^+ ATPase (Oryctolagus cuniculus, UniProt P27112); construct: using an enzyme isolated from the rabbit or porcine (pig) fundus; from tissue; host or cells: rabbit gastric fundus; test: H+K+-ATPase assay (p-NPP to p-NP), enzyme from rabbit fundus; type: biochemical; settings: pH 6.0, 30 min pre-incubation at 37° C.
Sequence (P27112 2-1035 limits assumed): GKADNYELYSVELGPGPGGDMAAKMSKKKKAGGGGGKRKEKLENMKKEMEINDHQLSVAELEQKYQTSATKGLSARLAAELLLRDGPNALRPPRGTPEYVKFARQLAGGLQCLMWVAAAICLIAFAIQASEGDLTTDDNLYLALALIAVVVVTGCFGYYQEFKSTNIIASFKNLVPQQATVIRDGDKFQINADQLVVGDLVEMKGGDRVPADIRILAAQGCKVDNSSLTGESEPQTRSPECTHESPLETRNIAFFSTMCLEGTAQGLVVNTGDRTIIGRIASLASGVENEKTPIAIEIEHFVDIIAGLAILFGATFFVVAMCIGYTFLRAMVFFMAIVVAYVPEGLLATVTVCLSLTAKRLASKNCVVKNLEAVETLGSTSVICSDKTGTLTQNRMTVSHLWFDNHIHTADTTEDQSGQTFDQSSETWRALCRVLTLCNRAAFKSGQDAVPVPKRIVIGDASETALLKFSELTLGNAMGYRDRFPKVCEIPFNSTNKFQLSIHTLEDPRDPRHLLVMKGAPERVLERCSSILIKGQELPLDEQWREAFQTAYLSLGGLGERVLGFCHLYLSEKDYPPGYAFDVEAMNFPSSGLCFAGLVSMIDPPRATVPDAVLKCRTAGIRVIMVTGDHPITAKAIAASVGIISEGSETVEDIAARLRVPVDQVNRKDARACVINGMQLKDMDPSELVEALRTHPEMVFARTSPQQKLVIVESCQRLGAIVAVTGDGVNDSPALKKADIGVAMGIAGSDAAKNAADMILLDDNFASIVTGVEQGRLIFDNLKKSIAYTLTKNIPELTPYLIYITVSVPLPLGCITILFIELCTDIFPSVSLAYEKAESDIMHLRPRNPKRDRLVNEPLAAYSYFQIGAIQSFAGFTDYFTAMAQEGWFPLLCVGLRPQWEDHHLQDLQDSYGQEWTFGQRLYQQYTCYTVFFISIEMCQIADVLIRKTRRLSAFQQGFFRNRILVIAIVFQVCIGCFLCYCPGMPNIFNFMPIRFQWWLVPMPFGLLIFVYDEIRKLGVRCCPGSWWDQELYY
Sequence (P18597 whole entry partner): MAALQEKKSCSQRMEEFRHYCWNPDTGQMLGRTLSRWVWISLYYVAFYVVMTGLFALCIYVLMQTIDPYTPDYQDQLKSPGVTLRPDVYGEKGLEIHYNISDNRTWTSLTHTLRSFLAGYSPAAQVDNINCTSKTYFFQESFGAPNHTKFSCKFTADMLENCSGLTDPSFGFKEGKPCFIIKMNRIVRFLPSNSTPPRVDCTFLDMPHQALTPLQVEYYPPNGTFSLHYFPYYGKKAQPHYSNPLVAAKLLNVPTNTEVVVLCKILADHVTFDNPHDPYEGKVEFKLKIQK
Reported pIC50 values are given for each entry in this list.
Interpret pIC50 as the negative base-10 log of the concentration measured in mol/L.

Answered examples (3):
* Cc1cn(-c2nc3ccccc3[nH]2)c(CSSCc2c(C)c(=O)c(C)cn2-c2nc3ccccc3[nH]2)c(C)c1=O | 6.00
* COc1ccc2[nH]c(-n3ccc(=O)c(OC)c3CSSCc3c(OC)c(=O)ccn3-c3nc4nc(OC)ccc4[nH]3)nc2n1 | 5.70
* Cc1cn(-c2nc3cc(F)ccc3[nH]2)c(CSSCc2c(C)c(=O)c(C)cn2-c2nc3cc(F)ccc3[nH]2)c(C)c1=O | 5.92

Now for the compound whose pIC50 we want.
Q: Request the reported pIC50 associated with COc1c(CSSCc2c(OC)c(=O)ccn2-c2nc3cc(C)ccc3[nH]2)n(-c2nc3cc(C)ccc3[nH]2)ccc1=O
A: 5.89

Source: patent US9522924B1
